Field: inhibition at 100 µM. Provide a value for each of the compounds that follow.
- Tested Target: CYP1A2 (Homo sapiens, UniProt P05177)
- Sequence (P05177 whole entry): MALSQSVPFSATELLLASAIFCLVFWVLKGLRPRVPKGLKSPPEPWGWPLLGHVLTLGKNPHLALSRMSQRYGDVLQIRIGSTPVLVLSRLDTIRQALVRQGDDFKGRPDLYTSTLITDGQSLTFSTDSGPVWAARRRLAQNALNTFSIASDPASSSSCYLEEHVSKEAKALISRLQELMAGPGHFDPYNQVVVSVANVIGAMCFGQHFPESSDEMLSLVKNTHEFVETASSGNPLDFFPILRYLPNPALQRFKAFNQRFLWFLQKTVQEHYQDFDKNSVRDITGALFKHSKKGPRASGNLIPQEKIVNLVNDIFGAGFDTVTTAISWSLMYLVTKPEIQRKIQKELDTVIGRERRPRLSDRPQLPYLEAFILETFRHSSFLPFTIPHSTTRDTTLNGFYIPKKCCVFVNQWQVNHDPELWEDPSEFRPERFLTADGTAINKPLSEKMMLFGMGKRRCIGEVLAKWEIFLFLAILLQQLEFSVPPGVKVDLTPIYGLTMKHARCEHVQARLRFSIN
- Method Notes: in vitro

INPUT: # get_value(readout= inhibition at 100 µM, system= CYP1A2 (Homo sapiens, UniProt P05177)) for Cn1c(=O)c2c(ncn2C)n(C)c1=O [CAFFEINE]
OUTPUT: < 10%

INPUT: # get_value(readout= inhibition at 100 µM, system= CYP1A2 (Homo sapiens, UniProt P05177)) for CCN(CC)Cc1cc(Nc2ccnc3cc(Cl)ccc23)ccc1O [AMODIAQUINE]
OUTPUT: < 10%

INPUT: # get_value(readout= inhibition at 100 µM, system= CYP1A2 (Homo sapiens, UniProt P05177)) for Clc1ccccc1CN1CCc2sccc2C1 [TICLOPIDINE]
OUTPUT: 36%

INPUT: # get_value(readout= inhibition at 100 µM, system= CYP1A2 (Homo sapiens, UniProt P05177)) for COc1ccc2c(c1)c(CC(=O)O)c(C)n2C(=O)c1ccc(Cl)cc1 [INDOMETHACIN]
OUTPUT: < 10%

INPUT: # get_value(readout= inhibition at 100 µM, system= CYP1A2 (Homo sapiens, UniProt P05177)) for CC(=O)CC(c1ccccc1)c1c(O)c2ccccc2oc1=O (stereo unspecified) [WARFARIN]
OUTPUT: 19%

INPUT: # get_value(readout= inhibition at 100 µM, system= CYP1A2 (Homo sapiens, UniProt P05177)) for `O=C(O)COc1ccc(C(=O)c2cccs2)c(Cl)c1Cl`
OUTPUT: < 10%

INPUT: # get_value(readout= inhibition at 100 µM, system= CYP1A2 (Homo sapiens, UniProt P05177)) for COc1ccc(CCN(C)CCCC(C#N)(c2ccc(OC)c(OC)c2)C(C)C)cc1OC (stereo unspecified)
OUTPUT: < 10%

INPUT: # get_value(readout= inhibition at 100 µM, system= CYP1A2 (Homo sapiens, UniProt P05177)) for Cc1cc2c(s1)Nc1ccccc1N=C2N1CCN(C)CC1 [OLANZAPINE]
OUTPUT: < 10%

INPUT: # get_value(readout= inhibition at 100 µM, system= CYP1A2 (Homo sapiens, UniProt P05177)) for COc1cc(C(=O)NS(=O)(=O)c2ccccc2C)ccc1Cc1cn(C)c2ccc(NC(=O)OC3CCCC3)cc12 [ZAFIRLUKAST]
OUTPUT: 11%

INPUT: # get_value(readout= inhibition at 100 µM, system= CYP1A2 (Homo sapiens, UniProt P05177)) for O=C(O)Cc1ccccc1Nc1c(Cl)cccc1Cl [DICLOFENAC]
OUTPUT: < 10%

INPUT: # get_value(readout= inhibition at 100 µM, system= CYP1A2 (Homo sapiens, UniProt P05177)) for CNCCC(Oc1ccc(C(F)(F)F)cc1)c1ccccc1 (stereo unspecified) [FLUOXETINE]
OUTPUT: 12%

* * *

- Method Notes: Intrinsic clearance for reactive metabolites formation assessed as summation of [3H]GSH adduct formation rate-based reactive metabolites formation and cytochrome P450 (unknown origin) inactivation rate-based reactive metabolites formation
- Condition Details: human
Observation Type: clearance (µL/min/mg)
Supply the numeric figure in µL/min/mg, leaving out any unit text.

INPUT: Entry CC(=O)CC(c1ccccc1)c1c(O)c2ccccc2oc1=O (stereo not drawn) [WARFARIN] : reported clearance = ?
OUTPUT: 0.003

INPUT: Entry CC[C@H]1OC(=O)[C@H](C)[C@@H](O[C@H]2C[C@@](C)(OC)[C@@H](O)[C@H](C)O2)[C@H](C)[C@@H](O[C@@H]2O[C@H](C)C[C@H](N(C)C)[C@H]2O)[C@](C)(O)C[C@@H](C)C(=O)[C@H](C)[C@@H](O)[C@]1(C)O [ERYTHROMYCIN] : reported clearance = ?
OUTPUT: 0.021

INPUT: Entry C#C[C@]1(O)CC[C@H]2[C@@H]3CCc4cc(O)ccc4[C@H]3CC[C@@]21C [ETHINYL ESTRADIOL] : reported clearance = ?
OUTPUT: 0.427

INPUT: Entry COC(=O)[C@H](c1ccccc1Cl)N1CCc2sccc2C1 [CLOPIDOGREL] : reported clearance = ?
OUTPUT: 1.08

INPUT: Entry COc1ccc2c(c1)c(CC(=O)O)c(C)n2C(=O)c1ccc(Cl)cc1 [INDOMETHACIN] : reported clearance = ?
OUTPUT: 0.001

INPUT: Entry `O=C(O)COc1ccc(C(=O)c2cccs2)c(Cl)c1Cl` : reported clearance = ?
OUTPUT: 0.111

INPUT: Entry CNCCC(Oc1ccc(C(F)(F)F)cc1)c1ccccc1 (stereo not drawn) [FLUOXETINE] : reported clearance = ?
OUTPUT: 0.008

INPUT: Entry Cc1ccnc2c1NC(=O)c1cccnc1N2C1CC1 [NEVIRAPINE] : reported clearance = ?
OUTPUT: 0.013

* * *

- System: Liver microsome
- Method Notes: Covalent binding in human liver microsomes measured per mg of protein using radiolabelled compound at 10 uM after 1 hr incubation by liquid scintillation counting
Observation Type: PB (pmol)
Supply the numeric figure in pmol, leaving out any unit text.

INPUT: Entry CCN(CC)Cc1cc(Nc2ccnc3cc(Cl)ccc23)ccc1O [AMODIAQUINE] : reported PB = ?
OUTPUT: 208.1

INPUT: Entry CC(C)C(=O)Nc1ccc([N+](=O)[O-])c(C(F)(F)F)c1 [FLUTAMIDE] : reported PB = ?
OUTPUT: 178

INPUT: Entry CCc1ccc(CCOc2ccc(CC3SC(=O)NC3=O)cc2)nc1 (centres undefined) [PIOGLITAZONE] : reported PB = ?
OUTPUT: 353

INPUT: Entry `CCCCC(=O)N(Cc1ccc(-c2ccccc2-c2nnn[nH]2)cc1)[C@H](C(=O)O)C(C)C` : reported PB = ?
OUTPUT: 1.4

INPUT: Entry COc1ccc2c(c1)c(CC(=O)O)c(C)n2C(=O)c1ccc(Cl)cc1 [INDOMETHACIN] : reported PB = ?
OUTPUT: 14.7

INPUT: Entry CC(=O)CC(c1ccccc1)c1c(O)c2ccccc2oc1=O (centres undefined) [WARFARIN] : reported PB = ?
OUTPUT: 15.9

INPUT: Entry CN(CCOc1ccc(CC2SC(=O)NC2=O)cc1)c1ccccn1 (centres undefined) [ROSIGLITAZONE] : reported PB = ?
OUTPUT: 516.1

INPUT: Entry Cc1c(N(C)C)c(=O)n(-c2ccccc2)n1C [AMINOPYRINE] : reported PB = ?
OUTPUT: 30.9

INPUT: Entry COc1cc2c(cc1OC)C(=O)C(CC1CCN(Cc3ccccc3)CC1)C2 (centres undefined) [DONEPEZIL] : reported PB = ?
OUTPUT: 29.7

* * *

Field: clearance. Provide a value for each of the compounds that follow.
- Method Notes: Intrinsic clearance for reactive metabolites formation per mg of protein based on cytochrome P450 (unknown origin) inactivation rate by TDI assay
- Condition Details: human
Supply the numeric figure in µL/min/mg, leaving out any unit text.

INPUT: Entry `Nc1c2c(nc3ccccc13)CCCC2` : reported clearance = ?
OUTPUT: 0.007

INPUT: Entry `COc1ccc2c(c1)c(CC(=O)O)c(C)n2C(=O)c1ccc(Cl)cc1` : reported clearance = ?
OUTPUT: 0.001

INPUT: Entry `CC[C@H]1OC(=O)[C@H](C)[C@@H](O[C@H]2C[C@@](C)(OC)[C@@H](O)[C@H](C)O2)[C@H](C)[C@@H](O[C@@H]2O[C@H](C)C[C@H](N(C)C)[C@H]2O)[C@](C)(O)C[C@@H](C)C(=O)[C@H](C)[C@@H](O)[C@]1(C)O` : reported clearance = ?
OUTPUT: 0.021

INPUT: Entry `O=C(O)COc1ccc(C(=O)c2cccs2)c(Cl)c1Cl` : reported clearance = ?
OUTPUT: 0.069

INPUT: Entry CC(=O)CC(c1ccccc1)c1c(O)c2ccccc2oc1=O (centres undefined) : reported clearance = ?
OUTPUT: 0.003

INPUT: Entry `COc1cc(C(=O)NS(=O)(=O)c2ccccc2C)ccc1Cc1cn(C)c2ccc(NC(=O)OC3CCCC3)cc12` : reported clearance = ?
OUTPUT: 0.207

INPUT: Entry CNCCC(Oc1ccc(C(F)(F)F)cc1)c1ccccc1 (centres undefined) : reported clearance = ?
OUTPUT: 0.008

INPUT: Entry CN(CCOc1ccc(CC2SC(=O)NC2=O)cc1)c1ccccn1 (centres undefined) : reported clearance = ?
OUTPUT: 0.028

INPUT: Entry `C#C[C@]1(O)CC[C@H]2[C@@H]3CCc4cc(O)ccc4[C@H]3CC[C@@]21C` : reported clearance = ?
OUTPUT: 0.087

* * *

- Tested Target: CYP2B6 (Homo sapiens, UniProt P20813)
- Sequence (P20813 whole entry): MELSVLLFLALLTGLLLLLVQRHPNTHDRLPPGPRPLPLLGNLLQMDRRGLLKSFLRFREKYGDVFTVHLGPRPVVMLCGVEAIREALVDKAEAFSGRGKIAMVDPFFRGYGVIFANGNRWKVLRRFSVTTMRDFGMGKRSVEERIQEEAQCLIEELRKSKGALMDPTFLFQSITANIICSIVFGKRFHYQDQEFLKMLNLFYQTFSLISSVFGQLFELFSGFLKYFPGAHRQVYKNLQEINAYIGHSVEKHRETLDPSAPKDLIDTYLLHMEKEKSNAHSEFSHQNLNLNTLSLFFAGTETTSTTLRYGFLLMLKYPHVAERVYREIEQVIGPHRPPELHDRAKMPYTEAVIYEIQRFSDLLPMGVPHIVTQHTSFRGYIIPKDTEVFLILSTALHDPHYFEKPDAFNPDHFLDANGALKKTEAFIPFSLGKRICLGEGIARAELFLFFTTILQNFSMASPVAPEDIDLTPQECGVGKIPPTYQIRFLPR
- Method Notes: in vitro
Observation Type: inhibition at 100 µM

INPUT: # get_value(readout= inhibition at 100 µM, system= CYP2B6 (Homo sapiens, UniProt P20813)) for `CN1CCN(C2=Nc3cc(Cl)ccc3Nc3ccccc32)CC1`
OUTPUT: < 10%

INPUT: # get_value(readout= inhibition at 100 µM, system= CYP2B6 (Homo sapiens, UniProt P20813)) for Cc1cc(CC(=O)O)n(C)c1C(=O)c1ccc(Cl)cc1 [ZOMEPIRAC]
OUTPUT: < 10%

INPUT: # get_value(readout= inhibition at 100 µM, system= CYP2B6 (Homo sapiens, UniProt P20813)) for `CCCC(CCC)C(=O)O`
OUTPUT: < 10%

INPUT: # get_value(readout= inhibition at 100 µM, system= CYP2B6 (Homo sapiens, UniProt P20813)) for `O=C(O)COc1ccc(C(=O)c2cccs2)c(Cl)c1Cl`
OUTPUT: < 10%

INPUT: # get_value(readout= inhibition at 100 µM, system= CYP2B6 (Homo sapiens, UniProt P20813)) for COc1ccc(CCN(C)CCCC(C#N)(c2ccc(OC)c(OC)c2)C(C)C)cc1OC (stereo not given)
OUTPUT: 10%

INPUT: # get_value(readout= inhibition at 100 µM, system= CYP2B6 (Homo sapiens, UniProt P20813)) for `Cc1c(N(C)C)c(=O)n(-c2ccccc2)n1C`
OUTPUT: < 10%

INPUT: # get_value(readout= inhibition at 100 µM, system= CYP2B6 (Homo sapiens, UniProt P20813)) for CC(C)C(=O)Nc1ccc([N+](=O)[O-])c(C(F)(F)F)c1 [FLUTAMIDE]
OUTPUT: < 10%

INPUT: # get_value(readout= inhibition at 100 µM, system= CYP2B6 (Homo sapiens, UniProt P20813)) for `CC(=O)Nc1ccc(O)cc1`
OUTPUT: < 10%

INPUT: # get_value(readout= inhibition at 100 µM, system= CYP2B6 (Homo sapiens, UniProt P20813)) for CC(=O)CC(c1ccccc1)c1c(O)c2ccccc2oc1=O (stereo not given)
OUTPUT: < 10%

INPUT: # get_value(readout= inhibition at 100 µM, system= CYP2B6 (Homo sapiens, UniProt P20813)) for `CC[C@H](C)C(=O)O[C@H]1C[C@H](O)C=C2C=C[C@H](C)[C@H](CC[C@@H](O)C[C@@H](O)CC(=O)O)[C@H]21`
OUTPUT: < 10%
